test system: male NIH-Swiss mice; assay: Forced-swim test in mice (mFST); format: in vivo, mouse; conditions: Mus musculus, ip; immobility in last 4 min of 6 min
Entries and their ED60 values follow.
Give the number; mg/kg is assumed, so skip it.

Input smiles	Readout number
CC(=O)N[C@H]1[C@H]2[C@H](C(=O)O)[C@H]2[C@](N)(C(=O)O)[C@@H]1OCc1ccc(Cl)c(Cl)c1	9.5
N[C@]1(C(=O)O)[C@@H]2[C@@H](C(=O)O)[C@@H]2[C@H](Sc2nccs2)[C@H]1OCc1ccc(Cl)c(Cl)c1	8.2

With those in mind, consider the next compound.
What value of ED60 has been reported for the following compound? N[C@]1(C(=O)O)[C@@H]2[C@@H](C(=O)O)[C@@H]2[C@H](Sc2nc[nH]n2)[C@H]1OCc1ccc(Cl)c(Cl)c1
2.08

Origin of the recorded values: patent US9056844B2
